The measurements presented in this section are drawn from patent US20140004107A1.

Target desc: T1, human ST2 on human primary cells (human, UniProt Q01638 19-556)
T1 sequence: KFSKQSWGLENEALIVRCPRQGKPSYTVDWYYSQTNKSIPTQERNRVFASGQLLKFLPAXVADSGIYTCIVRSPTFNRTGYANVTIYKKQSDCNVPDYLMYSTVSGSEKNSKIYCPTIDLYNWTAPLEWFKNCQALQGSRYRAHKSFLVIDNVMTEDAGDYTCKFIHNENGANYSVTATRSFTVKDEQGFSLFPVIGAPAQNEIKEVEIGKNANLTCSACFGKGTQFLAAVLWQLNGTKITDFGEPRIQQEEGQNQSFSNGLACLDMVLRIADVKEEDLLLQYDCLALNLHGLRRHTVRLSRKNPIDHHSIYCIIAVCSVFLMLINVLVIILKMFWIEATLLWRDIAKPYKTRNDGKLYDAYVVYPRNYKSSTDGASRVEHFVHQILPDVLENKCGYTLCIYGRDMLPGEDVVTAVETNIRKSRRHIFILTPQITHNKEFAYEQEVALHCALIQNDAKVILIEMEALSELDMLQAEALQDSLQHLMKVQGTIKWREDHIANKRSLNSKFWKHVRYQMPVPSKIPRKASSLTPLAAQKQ
Assay name: cell-based or functional assay
Form field: IC-50, human eosinophil IL-8 release assay (IL-33 and IL-3 stimulation) (one value per entry).
Give just the numeric value; pM need not be written.

Below are worked cases with known answers.
>  <Binder>
Ab5 (antibody, human IgG2, kappa, V domains shown) VH: EVQLVESGGGWVQPGGSLRLSCAASGFTFSSYDMYWVRQATGKGLEWVSGIDTVGDTYYPDSVKGRFTISRENAKNSVYLQMNTLRAGDTAVYYCVRGIYGDFYYYGLDVWGHGTTVTVSS VL: DIVMTQSPLSLPVTPGEPASISCRSSQSLLYSDGNNYLDWYLQKPGQSPHLLIYLGSNRASGVPDRFSGSGSGTDFTLKISRVEADDVGVYYCMQALQTLTFGGGTKVEIKR

>  <Assay result>
73.3

$$$$
>  <Binder>
Ab7 (antibody, human IgG2, kappa, V domains shown, fully human anti-ST2 antibody) VH: EVQLVESGGGLVQPGGSLRLSCAASGFTFSTYDMHWVRQTTGKGLEWVSAIDLAGDTYYPGSVKGRFTISREDAKNSLYLQMNSLRAGDTAVYYCARGGDGYNYDYYGIDVWGQGTTVTVSS VL: DIVMTQSPLSLPVTPGEPASISCRSSQSLLHSDGYHYLDWYLQKPGQSPQLLIYLGSNRASGVPDRFSGSGSGTDFTLNISRVEAEDVGVYYCMQALQTLTFGGGTKVEIKR

>  <Assay result>
40.7

$$$$
>  <Binder>
Ab4 (antibody, human IgG2, kappa, V domains shown, fully human anti-ST2 antibody) VH: QVQLVQSGAEVKKPGASVKVSCEVSGFILTELSVNWVRQAPGKGLEWMGGFDPEDGKTIYAQKFQGRVTLTEDTSTDTAYMELSSLRSEDTAVYYCATWWDFHFDFWGQGTLVTVSS VL: DFVMTQTPLSLSVTPGQPASISCKSSQSLLHSNGKTYLYWFLQKPGQPPQLLIYEVSNRFSGVPDRFSGSGSGTDFTLKISRVEAEDVGVYYCMQSIQLPLTFGGGTKVEIKR

>  <Assay result>
14.1

$$$$

IC-50, human eosinophil IL-8 release assay (IL-33 and IL-3 stimulation) lookup needed for Ab3 (antibody, human IgG2, kappa, V domains shown, fully human anti-ST2 antibody) VH: EVQLVESGGGLVQPGGSLRLSCAASGFTFSTYDMHWIRQAPGKNLEWVSAIDLAGDTYYPGSVKGRFTISREDAKNSLYLQMNSLRAGDTAVYYCARGGDGYNYDYYGIDVWGQGTTVTVSS VL: DIVMTQSPLSLPVTPGEPASISCRSSQSLLHSDGYHYLDWYLQKPGQSPQLLIYLGSNRASGVPDRFTGSGSGTDFTLKISRVEAEDVGVYYCMQALQILTFGGGTKVEIKR , thanks.
50.4
